system: CP297; experiment: qHTS profiling for inhibitors of Plasmodium falciparum proliferation (AID 504749); also: nearly all actives have a fitted effect of over 60% in size; conditions: P. falciparum in erythrocytes, SYBR Green DNA, 72 h; series mostly up to 28.7 µM
Results filed as inconclusive are left out. Calls of active or inactive are those of the source. Calls follow the shape of the dose curve; as a rule, active = well fitted inhibition curve with a large enough effect; inconclusive = small, poorly fitted or top-dose-only effect; inactive = flat fitted curve, though single readings scatter.
A correct response names exactly one class from Yes = active, No = inactive

Answered cases to consult:
INSERT INTO assay_data (compound, assigned_category) VALUES
  ('C[C@H]1CC[C@@H]2[C@@H](C)[C@H]3[C@H](C[C@H]4[C@@H]5CC=C6CC(O[C@@H]7O[C@H](CO)[C@H](O)[C@H](O[C@@H]8O[C@H](CO)[C@@H](O)[C@H](O)[C@H]8O)[C@H]7O[C@H]7O[C@@H](C)[C@H](O)[C@@H](O)[C@H]7O)CC[C@]6(C)[C@H]5CC[C@]34C)N2C1 (some centres not stated)', 'No'),
  ('O=C(CCl)c1ccc(Oc2ccc(C(=O)CCl)cc2)cc1', 'No'),
  ('CCCC(=O)OC(C(Cl)(Cl)Cl)P(=O)(OC)OC (configuration not stated)', 'No'),
  ('CN1C2CCC1CC(OC(c1ccccc1)c1ccc(Cl)cc1)C2 (configuration not stated)', 'Yes'),
  ('CCOc1ccc2c3c1O[C@H]1[C@@H](O)C=C[C@H]4[C@@H](C2)N(C)CC[C@@]341', 'Yes'),
  ('O=c1c2ccccc2[se]n1-c1ccccc1', 'No');

I would be grateful if you could indicate the recorded call for CCOC(=O)c1ccccc1C(=O)OCC . No

Test call, this compound: CCC1(C)CC(=O)NC(=O)C1 No

I'd appreciate the recorded outcome for N#CC1(N2CCCCC2)CCCCC1 from this test. No

Outcome? CCCCCCCCCC(=O)O[C@H]1CC[C@H]2[C@@H]3CCC4=CC(=O)CC[C@]4(C)[C@H]3CC[C@]12C No

Can you look up the reported call for O=Cc1ccco1 for me? No

Tell me the recorded outcome of this test for O=C1CCCCC1CN1CCCCC1 (configuration not stated) . No

Which result was noted for this compound in the test: c1ccc2cc(CC3=NCCN3)ccc2c1 No

GET /call?item= O=[N+]([O-])c1ccc(F)c([N+](=O)[O-])c1 returns the recorded outcome of this test. No

Can you look up the reported call for CCC1(c2ccccc2)C(=O)NC(=O)N(C)C1=O (configuration not stated) for me? No

What call does the record list for CCC1(CC)C(=O)NC(=O)N(C)C1=O ? No

What classification did CCC(=O)O[C@@](Cc1ccccc1)(c1ccccc1)[C@@H](C)CN(C)C end up with in this test? No

Which result was noted for this compound in the test: CCCC(C)(COC(N)=O)COC(=O)NC1CC1 (configuration not stated) No

Per the assay record, what outcome was assigned to O=c1[nH]cc(N(CCCl)CCCl)c(=O)[nH]1 ? No

Hi, do you know how Clc1ccc(C2(Cn3cncn3)OCCO2)c(Cl)c1 came out in this test? No

Every entry's value here was drawn from PubChem BioAssay (NCATS).
